B1: tRNA (parent)
chain: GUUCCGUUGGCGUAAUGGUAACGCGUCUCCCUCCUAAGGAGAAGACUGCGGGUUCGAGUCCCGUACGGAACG

# Variants of: B1
# test: yeast fitness relative to wild type (ratio to wild type); higher = fitter; tRNA-Arg(CCU), competitive growth, 37 C, YPD
This sample holds only a part of the variants without activity.
Each record here notes measured yeast fitness.
Write no unit; give the number alone.

These solved cases illustrate the format of a correct answer.
# sequence_input, yeast fitness
data = [
    ("GUUCCGUUGGCGUAAUGGUAACGCGUCUCACUCCUAAGGAGUAGACUGCGGGUUCGAGUCCCGUACGGAACG [C30A A42U]", 0.753),
    ("GUUCCGUUGGCGUAAUGGUAACGCGUCUCCUUCCUAAGGAGAAGACUGCGGGUUCGAGUCCCGUACGGACCG [C31U A70C]", 1.05),
    ("GUUCUGUUGGCAUAAUGGUAACGCGUCUCCCUCCUAAGGAGAAGACUACGGGUUCGAGUCCCGUACGGAACG [C5U G12A G48A]", 1.18),
    ("GUUCCGUUGGCGUAGUGGUAACGCGUCUCCCUCCUAAGCAGAAGACUGCGGGUUCGAGUCCCGUACGGCACG [A15G G39C A69C]", 0.624),
    ("GUUCCGUUGGCGUAUUGGUUACGCGUGUCCCUCCUAAGGAGAAGACUGGGGGUUCGAGUCCCGUACGGAACG [A15U A20U C27G C49G]", 0.64),
    ("GGUCCGUUGGCGUAAUGGUAACGCGUUUCCCUCCUAAGGAGAAGAUUGCGGGUUCGAGUCCCGUACGGAACG [U2G C27U C46U]", 0.999),
    ("GUUCCGUUGGCGUAAUGGUAACGCGUCUCCCUCCUAAGGAGGAGACUGCAGGUUCGAGUCCCGUACGGAACG [A42G G50A]", 0.842),
    ("GUUGCGUUGGCGUAAUGGCAACGUGUCUCCCUCCUAAGGAGAAGACUGCGGGUUCGAGUCCCGUACGGAACG [C4G U19C C24U]", 0.619),
]

Incoming: yeast fitness for GUUCCGUUGGCGUAAUGGUAACCCGUCUCCCUCCUAAGGAGAAGACUGCAGGUUCGAGUCCCGUACGGAACG [G23C G50A] ?
Outgoing: 0.726

Incoming: Consider the variant shown here: GUUCCGUUGGUGUAAUGGUAACGCGUCUCCCUCCUAAGGAGCAGACUGUGGGUUCGAGUCCCGUACGGAACG [C11U A42C C49U] What is its recorded yeast fitness?
Outgoing: 0.734

Incoming: Suppose we examine the variant GUUCCGUUGGCGUAAUGGUAACCCGUCUCCCUCCUAGGGAGAAGACUGCGGGUUCGAGUCCCGUACGGCACG [G23C A37G A69C] ; what yeast fitness value has been reported?
Outgoing: 0.548
